Task for the reader: assign each of the following compounds its reported IC50.
# systemTested: c-Met (cytoplasmic domain) (Homo sapiens, UniProt P08581)
# Construct: 10 ng/mL c-Met (cytoplasmic domain, Invitrogen Corporation #PV3143); purchased Invitrogen Corporation PV3143
# Sequence (P08581 956-1390 limits assumed): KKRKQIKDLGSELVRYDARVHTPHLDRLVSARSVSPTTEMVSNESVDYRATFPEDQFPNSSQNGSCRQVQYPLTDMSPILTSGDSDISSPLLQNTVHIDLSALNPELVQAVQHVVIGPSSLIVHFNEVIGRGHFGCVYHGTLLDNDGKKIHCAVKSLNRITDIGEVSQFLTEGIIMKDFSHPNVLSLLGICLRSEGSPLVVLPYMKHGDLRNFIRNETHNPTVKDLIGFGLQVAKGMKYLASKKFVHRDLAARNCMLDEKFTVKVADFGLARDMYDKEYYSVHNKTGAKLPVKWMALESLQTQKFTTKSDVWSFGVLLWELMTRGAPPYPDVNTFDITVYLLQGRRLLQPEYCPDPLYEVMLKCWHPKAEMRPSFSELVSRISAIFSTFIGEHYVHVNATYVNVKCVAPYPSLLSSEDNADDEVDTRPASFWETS
# test: c-Met Kinase Assay (same methods as for ALK, with modifications)
# Assay type: biochemical
# testParameters: 1 μM ATP (Km level); read-out: cMet Activity (c-Met Kinase Inhibition, IC50)
# Protocol: Briefly, each 96-well plate was coated with 100 μL/well of 10 μg/mL substrate (phospholipase C-γ) in Tris-buffered saline (TBS). […] The reaction was initiated by adding enzyme (30 ng/ml ALK) and was allowed to proceed at 37° C. for 15 minutes. Detection of the phosphorylated product was performed by adding 100 μl/well of Eu-N1 labeled PT66 antibody (Perkin Elmer # AD0041). Data analysis was performed using ActivityBase (IDBS, Guilford, UK). […]

{"columns": ["compound", "IC50"],
 "data": [
  ["CCN1CCc2ccc(Nc3ncc(Cl)c(Nc4ccccc4OCC#N)n3)cc2CC1 [Example 928]", "< 0.1 µM"],
  ["COc1c(Nc2ncc(Cl)c(Nc3ccccc3S(=O)(=O)N3CCCC3)n2)ccc2c1CCC(N1CCOCC1)CC2 (centres unmarked) [Example 900]", "1 to 10 µM"],
  ["COc1c(Nc2ncc(Cl)c(Nc3ccccc3S(=O)(=O)N(C)C)n2)ccc2c1CCC(N1CCCC(O)C1)CC2 (mixture of isomers) [Example 907]", "> 10 µM"],
  ["CCN1CC(=O)N(CC)c2cc(Nc3ncc(Cl)c(Nc4ccc(OC)cc4-n4cccn4)n3)c(OC)cc2C1 [Example 737]", "> 10 µM"],
  ["COc1cc(N2CCOCC2)ccc1Nc1nc(Nc2ccc3c(c2)CCC(N2CCOCC2)CC3)ncc1Cl (centres unmarked) [Example 865]", "1 to 10 µM"]
]}

Please state, for each entry, its recorded IC50.
1. COc1c(Nc2ncc(Cl)c(Nc3ccccc3S(=O)(=O)C(C)C)n2)ccc2c1CCC(N1CCN(C)CC1)CC2 (racemic) [Example 914]
2. NC(=O)[C@@H]1[C@H](Nc2nc(Nc3ccc4c(c3)CCC(N3CCOCC3)CC4)ncc2Cl)[C@H]2C=C[C@@H]1C2 (single isomer, unassigned) [Example 681]
3. CS(=O)(=O)N[C@@H]1CCCC[C@H]1Nc1nc(Nc2ccc3c(c2)CNCCS3(=O)=O)ncc1Cl [Example 520]
4. CCCN1CCc2cc(Nc3ncc(Cl)c(N[C@H]4[C@@H](C(N)=O)[C@@H]5C=C[C@H]4C5)n3)c(OC)cc2CC1 [Example 774]
5. COc1ccccc1Nc1nc(Nc2ccc3c(c2)CCC(NCC(F)F)CC3)ncc1Cl (centres unmarked) [Example 663]

Key:
["1 to 10 µM", "0.1 to 1 µM", "1 to 10 µM", "> 10 µM", "1 to 10 µM"]

Please go through the list and note IC50 for each compound.
1. COCC(COC)N1CCc2cc(Nc3ncc(Cl)c(Nc4ccc(N5CCOCC5)cc4OC)n3)c(OC)cc2CC1 [Example 814]
2. COc1c(Nc2ncc(Cl)c(Nc3ccccc3S(=O)(=O)N3CCCC3)n2)ccc2c1CCC(NCCO)CC2 (centres unmarked) [Example 704]
3. Cn1cnc2c(Nc3nc(Nc4ccc5c(c4)C(C)(C)CCC(=O)N5)ncc3Cl)cccc21 [Example 1005]
4. CCN1CC(=O)N(C)c2cc(Nc3ncc(Cl)c(Nc4ccc(OC)c(CNCCO)c4)n3)c(OC)cc2C1 [Example 749]

Key:
1. > 10 µM
2. 0.1 to 1 µM
3. 0.1 to 1 µM
4. > 10 µM

Values compiled from patent US8148391B2.
